Reference for the values: the Human Domainome abundance scans (Beltran et al. 2025)

B1: Nuclear receptor subfamily 1 group D member 2, residues 103 to 171; numbered along this chain, Q14995 (parent)
chain: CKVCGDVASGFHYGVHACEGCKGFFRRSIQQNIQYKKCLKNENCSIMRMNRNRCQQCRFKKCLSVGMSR

Variants of: B1
Test: abundance fitness (aPCA) (normalised: wild type 0, dead -1); higher = more abundant; growth selection in yeast, the domain comes from the species named
Conditions: Homo sapiens
QUANTITY NAME: abundance fitness
API doc: respond with a numeric literal and nothing else, no unit.

mutation_list=S45V reported_value=-0.056
mutation_list=K40G reported_value=0.202
mutation_list=F25V reported_value=-0.785
mutation_list=K37Y reported_value=-0.631
mutation_list=I46T reported_value=-0.387

Problem: Field request: abundance fitness | item: N43A
Result: 0.01

Problem: Would you mind doing N32K as well?
Result: -0.401

Problem: Subsequent entry: R69M
Result: 0.318
